We begin with a simple list: items and their reported %Inh.
tested on: BRSK2; details: concentration: 1 μM, replicates: in singlicate; n = 1;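 note: KINOMEscan kinase panel screen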
MEASURED METRIC: %Inh (%)

- Cl.Cn1ccc(-c2cccc(Nc3ccnc4cc(-c5nccs5)ccc34)c2)n1: 38
- Nc1nc(-c2ccccn2)c(-c2ccnc3ccccc23)s1: 0
- O=C(CCO)NCCn1ccc2ncnc(Nc3ccc(Oc4cccc(C(F)(F)F)c4)c(Cl)c3)c21: 0
- Nc1nc(-c2ccc3c(N)n[nH]c3c2)cc(N2CCC[C@@H](C(=O)Nc3ccccc3)C2)n1.O=C(O)C(F)(F)F.O=C(O)C(F)(F)F: 0

* * *

test system: AMPK-alpha2; construct: gene PRKAA2; details: concentration: 1 μM, replicates: in singlicate; n = 1
We begin with a simple list: items and their reported %Inh.
MEASURED METRIC: %Inh (%)

• Nc1nccc2scc(-c3ccc4c(c3)CCN4C(=O)Cc3cc(F)ccc3F)c12 = 11
• Fc1ccc(-c2ncn(CCCNCc3ccccc3)c2-c2ccncc2)cc1 = 0
• Cn1ccc2ncnc(Oc3ccc(NC(=O)Nc4cccnc4)c(Cl)c3)c21 = 9
• Nc1nc(-c2cccnc2)c(-c2ccnc3ccccc23)s1 = 20
• Cl.Cn1ccc(-c2cccc(Nc3ccnc4cc(-c5nccs5)ccc34)c2)n1 = 14
• Cl.Fc1ccccc1COc1ccc(Nc2ncnc3ccc(-c4nnc(C(F)(F)F)o4)cc23)cc1Cl = 0
• c1ccc(-c2ccc3c(-c4ccnc(Nc5ccc6c(c5)OCCO6)n4)cnn3n2)cc1 = 25
• Fc1cccc(COc2ccc(Nc3ncnc4sc(-c5ccc[nH]5)cc34)cc2Cl)c1 = 36
• COC(=O)c1cccc(NC(=O)NCCNc2ccnc(Nc3ccc(F)cc3)n2)c1 = 18
• COc1ccc(Nc2nccc(N3CCC(NC(=O)c4cccc(NC(C)=O)c4)C3)n2)cc1 (centres unmarked) = 0
• CSc1ccc(NC2=C(c3ccccc3Cl)C(=O)NC2=O)cc1 = 0
• COC(=O)c1c(-c2ccccc2)c2cc(Cl)ccc2c(=O)n1Cc1ccc(S(C)(=O)=O)cc1 = 0
• Nc1nc(-c2ccc3c(N)n[nH]c3c2)cc(N2CCC[C@@H](C(=O)Nc3ccccc3)C2)n1.O=C(O)C(F)(F)F.O=C(O)C(F)(F)F = 26
• CCc1nc(-c2cccc(N(C)S(=O)(=O)c3ccccc3)c2)c(-c2ccnc(Nc3ccc(N4CCN(C(C)=O)CC4)nc3)n2)s1 = 0
• O=C(NCCCN1CCCC1=O)c1cnc(NCc2cc(Cl)ccc2Cl)nc1NC1CCNCC1 = 17
• Clc1cc(Nc2ncnc3cc[nH]c23)ccc1OCc1ccccn1 = 0
• O=C(c1ccc(-c2cc(-c3c[nH]nc3-c3ccccn3)ccn2)cc1)N1CCCC1 = 12

Data origin, for the record: paper PMC5540273
